Test system: Leishmania amazonensis
Experiment: Ratio of amphotericin B IC50 to compound IC50 for axenic amastigotes of Leishmania amazonensis
Type: functional
Hi there, I'd appreciate the recorded Ratio IC50 for every entry that follows.
Numbers only.

# input Name the value of Ratio IC50 reported for N#Cc1c(NS(=O)(=O)c2ccc([N+](=O)[O-])cc2)[n+]([O-])c2ccccc2[n+]1[O-] when tested on Leishmania amazonensis.
# output 430

# input Name the value of Ratio IC50 reported for N#Cc1c(NS(=O)(=O)c2ccc([N+](=O)[O-])cc2)[n+]([O-])c2cc(Cl)c(Cl)cc2[n+]1[O-] when tested on Leishmania amazonensis.
# output 79.5

# input Name the value of Ratio IC50 reported for CC(=O)Oc1ccccc1C(=O)Nc1c(C#N)[n+]([O-])c2cc(C)ccc2[n+]1[O-] when tested on Leishmania amazonensis.
# output 94

# input Name the value of Ratio IC50 reported for N#Cc1c(NS(=O)(=O)c2ccc3ccccc3c2)[n+]([O-])c2ccc(Cl)cc2[n+]1[O-] when tested on Leishmania amazonensis.
# output 100

# input Name the value of Ratio IC50 reported for CC(=O)Oc1ccccc1C(=O)Nc1c(C#N)[n+]([O-])c2cc(Cl)ccc2[n+]1[O-] when tested on Leishmania amazonensis.
# output 168

More entries:
# input Name the value of Ratio IC50 reported for CC(=O)Oc1ccccc1C(=O)Nc1c(C#N)[n+]([O-])c2cc(F)c(F)cc2[n+]1[O-] when tested on Leishmania amazonensis.
# output 74
